Below, each entry is listed with its recorded PI3Kβ IH % @ 1 uM.
# Target Of Assay: p110β/p85α (Homo sapiens)
# Sequence (P42338 whole entry): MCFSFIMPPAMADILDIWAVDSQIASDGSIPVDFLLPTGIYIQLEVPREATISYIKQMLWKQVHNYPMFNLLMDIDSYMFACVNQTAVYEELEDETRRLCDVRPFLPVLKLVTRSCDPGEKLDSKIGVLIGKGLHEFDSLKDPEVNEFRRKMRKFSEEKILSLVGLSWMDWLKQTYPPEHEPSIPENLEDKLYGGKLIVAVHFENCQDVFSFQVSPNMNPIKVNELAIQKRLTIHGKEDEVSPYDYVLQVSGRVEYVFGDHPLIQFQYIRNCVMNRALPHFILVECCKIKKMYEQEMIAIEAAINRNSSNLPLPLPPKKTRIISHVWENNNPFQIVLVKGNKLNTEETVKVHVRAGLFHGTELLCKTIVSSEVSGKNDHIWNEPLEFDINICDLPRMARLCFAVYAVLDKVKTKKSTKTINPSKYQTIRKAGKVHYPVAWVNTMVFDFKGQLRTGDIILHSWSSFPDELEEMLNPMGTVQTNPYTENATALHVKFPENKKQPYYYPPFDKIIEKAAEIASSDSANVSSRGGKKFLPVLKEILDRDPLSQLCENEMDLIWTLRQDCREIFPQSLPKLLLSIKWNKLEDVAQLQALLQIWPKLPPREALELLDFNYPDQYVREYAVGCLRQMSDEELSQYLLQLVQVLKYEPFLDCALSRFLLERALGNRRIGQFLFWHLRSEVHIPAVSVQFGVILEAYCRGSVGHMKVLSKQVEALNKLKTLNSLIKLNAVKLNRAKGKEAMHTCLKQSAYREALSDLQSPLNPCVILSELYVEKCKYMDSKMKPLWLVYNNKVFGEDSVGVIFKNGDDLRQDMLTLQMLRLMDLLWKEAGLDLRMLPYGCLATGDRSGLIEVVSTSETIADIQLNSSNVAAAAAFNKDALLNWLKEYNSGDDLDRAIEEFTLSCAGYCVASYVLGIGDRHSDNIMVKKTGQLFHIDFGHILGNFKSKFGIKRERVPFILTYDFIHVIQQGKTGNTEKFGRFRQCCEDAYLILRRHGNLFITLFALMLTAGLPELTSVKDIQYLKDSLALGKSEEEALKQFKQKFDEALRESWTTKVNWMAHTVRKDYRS
# Sequence (P27986 2-724 partner): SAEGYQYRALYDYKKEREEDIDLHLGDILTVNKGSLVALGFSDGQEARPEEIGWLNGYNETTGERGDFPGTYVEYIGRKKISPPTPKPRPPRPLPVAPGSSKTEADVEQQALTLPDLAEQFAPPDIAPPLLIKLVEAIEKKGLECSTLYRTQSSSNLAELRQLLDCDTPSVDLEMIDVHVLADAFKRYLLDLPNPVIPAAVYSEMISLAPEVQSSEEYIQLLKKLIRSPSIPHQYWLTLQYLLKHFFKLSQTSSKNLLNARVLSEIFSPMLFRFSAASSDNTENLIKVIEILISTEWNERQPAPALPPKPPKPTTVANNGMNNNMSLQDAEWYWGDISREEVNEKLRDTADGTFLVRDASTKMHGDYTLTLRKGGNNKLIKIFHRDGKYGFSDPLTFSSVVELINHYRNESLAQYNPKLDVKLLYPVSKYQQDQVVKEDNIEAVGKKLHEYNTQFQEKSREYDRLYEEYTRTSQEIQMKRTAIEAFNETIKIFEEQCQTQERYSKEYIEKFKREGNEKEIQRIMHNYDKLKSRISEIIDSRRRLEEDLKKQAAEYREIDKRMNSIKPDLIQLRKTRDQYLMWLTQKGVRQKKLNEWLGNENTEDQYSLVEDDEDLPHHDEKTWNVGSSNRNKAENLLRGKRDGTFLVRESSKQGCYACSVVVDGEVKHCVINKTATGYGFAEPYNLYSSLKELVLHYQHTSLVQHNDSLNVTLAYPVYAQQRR
# Assay Name: Transcreener KINASE Assay, kinase inhibition of p110β/p85α
# Format: biochemical
# Protocol Conditions: 1 uM test compound

Compound	PI3Kβ IH % @ 1 uM / %
CC(Nc1ncnc2[nH]cc(F)c12)c1cn2ccc(Cl)c2c(=O)n1-c1ccccc1 (stereo not shown)	87.4
Cn1cc(-c2cnc(N)nc2N2CC[C@H]2c2nn3ccc(Cl)c3c(=O)n2-c2ccccc2)cn1	−2.0
O=c1c2cccn2nc([C@@H]2CCN2c2ncnc3[nH]cnc23)n1-c1ccccc1	17.7
N#Cc1cnc(N)nc1N1CCC[C@H]1c1nn2ccc(Cl)c2c(=O)n1-c1ccc(F)cc1	80.5
C[C@H]1CN(c2nc(N)nc(N)c2C#N)C1c1nn2ccc(Cl)c2c(=O)n1-c1cccc(F)c1 (stereo partly shown)	75.6
CC(Nc1ncnc2[nH]cc(C#N)c12)c1cn2ccc(Cl)c2c(=O)n1-c1ccccc1 (stereo not shown)	94.7
C[S@@+]([O-])c1c[nH]c2ncnc(N3C[C@@H](F)C[C@H]3c3nn4ccc(Cl)c4c(=O)n3-c3cccc(F)c3)c12	35.2

----------
# Target Of Assay: p110δ/p85α (Homo sapiens, UniProt O00329)
# Sequence (O00329 whole entry): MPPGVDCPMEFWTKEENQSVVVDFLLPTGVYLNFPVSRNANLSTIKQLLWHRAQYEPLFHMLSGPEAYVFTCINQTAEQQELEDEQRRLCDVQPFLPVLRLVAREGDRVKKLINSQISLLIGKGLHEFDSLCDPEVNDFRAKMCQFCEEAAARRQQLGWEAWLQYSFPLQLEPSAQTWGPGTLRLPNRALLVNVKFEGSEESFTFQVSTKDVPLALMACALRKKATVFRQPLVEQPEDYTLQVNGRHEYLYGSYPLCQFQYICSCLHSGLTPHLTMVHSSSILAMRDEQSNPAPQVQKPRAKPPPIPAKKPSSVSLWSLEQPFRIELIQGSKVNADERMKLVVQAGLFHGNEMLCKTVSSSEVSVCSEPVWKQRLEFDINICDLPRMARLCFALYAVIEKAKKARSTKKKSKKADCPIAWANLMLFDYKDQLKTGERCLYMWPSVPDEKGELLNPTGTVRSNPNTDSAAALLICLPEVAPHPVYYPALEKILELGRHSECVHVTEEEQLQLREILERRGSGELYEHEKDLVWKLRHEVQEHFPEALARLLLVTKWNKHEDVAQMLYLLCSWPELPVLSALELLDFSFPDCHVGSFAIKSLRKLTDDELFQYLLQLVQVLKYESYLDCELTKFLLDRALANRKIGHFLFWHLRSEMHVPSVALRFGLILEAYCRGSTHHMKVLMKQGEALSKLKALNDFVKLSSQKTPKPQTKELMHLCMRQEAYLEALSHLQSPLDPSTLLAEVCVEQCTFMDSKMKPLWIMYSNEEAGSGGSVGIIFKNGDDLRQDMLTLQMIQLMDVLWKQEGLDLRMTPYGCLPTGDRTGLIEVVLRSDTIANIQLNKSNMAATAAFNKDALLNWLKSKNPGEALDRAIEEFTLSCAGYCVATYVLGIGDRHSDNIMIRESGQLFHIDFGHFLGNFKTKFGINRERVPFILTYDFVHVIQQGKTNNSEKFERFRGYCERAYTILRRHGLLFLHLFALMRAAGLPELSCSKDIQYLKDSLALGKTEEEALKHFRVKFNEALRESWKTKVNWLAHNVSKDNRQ
# Sequence (P27986 whole entry partner): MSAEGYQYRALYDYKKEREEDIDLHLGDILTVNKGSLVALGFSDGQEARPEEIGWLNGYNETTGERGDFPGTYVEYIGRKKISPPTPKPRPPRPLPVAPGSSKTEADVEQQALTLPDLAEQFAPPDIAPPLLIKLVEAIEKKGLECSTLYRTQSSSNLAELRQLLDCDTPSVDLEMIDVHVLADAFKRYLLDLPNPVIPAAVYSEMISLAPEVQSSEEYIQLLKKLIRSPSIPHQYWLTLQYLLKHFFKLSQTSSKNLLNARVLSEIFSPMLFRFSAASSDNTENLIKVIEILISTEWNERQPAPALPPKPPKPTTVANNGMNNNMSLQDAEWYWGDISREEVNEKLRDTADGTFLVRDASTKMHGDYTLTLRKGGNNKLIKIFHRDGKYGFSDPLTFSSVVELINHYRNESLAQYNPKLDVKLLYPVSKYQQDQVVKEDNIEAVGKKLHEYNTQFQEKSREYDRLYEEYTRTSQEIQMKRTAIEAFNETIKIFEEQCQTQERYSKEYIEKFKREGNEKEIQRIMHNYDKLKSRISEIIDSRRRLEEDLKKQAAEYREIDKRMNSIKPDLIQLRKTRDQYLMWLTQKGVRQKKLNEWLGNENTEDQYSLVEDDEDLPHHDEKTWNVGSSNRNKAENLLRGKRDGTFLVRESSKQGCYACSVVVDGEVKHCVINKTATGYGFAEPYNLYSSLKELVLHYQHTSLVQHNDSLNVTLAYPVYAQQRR
# Assay Name: Transcreener KINASE Assay, kinase inhibition of p110δ/p85α
# Protocol Conditions: read-out: PI3Kδ IC50
pIC50: −log10 of the molar value.

Molecule	pIC50
C[S+]([O-])c1c[nH]c2ncnc(N3CCC[C@H]3c3nn4ccc(Cl)c4c(=O)n3-c3ccc(F)cc3)c12 (stereo partly shown)	7.92
CNC(=O)c1c[nH]c2ncnc(N3CCC[C@H]3c3nn4ccc(Cl)c4c(=O)n3-c3ccccc3)c12	7.62
N#Cc1c[nH]c2ncnc(N3C[C@@H](F)C[C@H]3c3nn4ccc(F)c4c(=O)n3-c3ccccn3)c12	8.70
C[C@H]1CN(c2ncnc3[nH]cnc23)C1c1nn2ccc(Cl)c2c(=O)n1-c1ccccc1 (stereo partly shown)	7.85
CC(=O)c1cnc(N)nc1N[C@H](C)c1cc2ncc(Cl)n2c(=O)n1-c1ccccc1 (single isomer, unassigned)	7.77
O=c1c2c(C3CC3)ccn2nc([C@@H]2CCCN2c2ncnc3[nH]cnc23)n1-c1ccccc1	6.46
CC(=O)c1cnc(N)nc1NC(C)c1cn2ccc(Cl)c2c(=O)n1-c1cccc(F)c1 (stereo not shown)	8.52

----------
Below, each entry is listed with its recorded pIC50.
# Target Of Assay: p110δ/p85α (Homo sapiens, UniProt O00329)
# Assay Name: Transcreener KINASE Assay, kinase inhibition of p110δ/p85α
# Protocol Conditions: read-out: PI3Kδ IC50
pIC50: −log10 of the molar value.
Reported Endpoint: pIC50

Molecule	Number
C[S+]([O-])c1n[nH]c2ncnc(N3CCC[C@H]3c3nn4ccc(Cl)c4c(=O)n3-c3ccccc3)c12 (stereo partly shown)	7.47
CC(C)Cn1c([C@@H]2CCCN2c2ncnc3[nH]cc(C#N)c23)nn2c(F)ccc2c1=O	8.30
Nc1ncc(-c2n[nH]c3ncnc(N4CC[C@H]4c4nn5ccc(Cl)c5c(=O)n4-c4ccccc4)c23)cn1	8.30
CC(=O)c1cnc(N)nc1N1C[C@H](C)[C@H]1c1nn2ccc(Cl)c2c(=O)n1-c1ccccn1	8.70
